Taken from patent US9789181B2.

- TARGET DESC: HLA DRB1 *1501 (Homo sapiens, UniProt P01903+P01911)
- ASSAY INFO: IC50nM to purified HLA | DRB1 *1501
Where no end group is shown, it is not given here.
log10 of IC50 values by entry
A difference of one corresponds to tenfold IC50; all values are log10 with IC50 in nM.

Record excerpt, results attached:
AAANFVAAYTLHAAA [SEQ ID NO: 52] : 0.62
AAAHFVAAYTLKADA [SEQ ID NO: 32] : 1.04

Incoming: Given the entry AAAEFVAAWTLKAAA [SEQ ID NO: 45] , report its measured log10 of IC50.
Outgoing: 1.75

Incoming: Then what about the sequence AAAHFVAAFTLKAEA [SEQ ID NO: 38] ?
Outgoing: 1.49

Incoming: Input AAAKFVAAWTLKADA [SEQ ID NO: 30]
Outgoing: 1.28

Incoming: Would you mind doing AAAKFVAAWTLKAEA [SEQ ID NO: 35] as well?
Outgoing: 1.36

Incoming: Next sequence up: AAANFVAAWTLKAAA [SEQ ID NO: 50]
Outgoing: 1.08

Incoming: Thanks! And AAADFVAAWTLHAAA [SEQ ID NO: 41] ?
Outgoing: 1.95

====

Property: IC50; scope: individual sequences
- TARGET DESC: purified HLA DRB1 *0401 (Homo sapiens, UniProt P01903+P01911, A100K/A169T/F76Y/I96L/K127E/L162R/M171V/N62H/P40V/Q125Y/R42H/S133A/S149N/S66Y/V115G/V209L/W38E)
- ASSAY INFO: IC50nM to purified HLA | DRB1 *0401
Where no end group is shown, it is not given here.
Express it in nM; write the number only.

Solved cases (8 shown):
AAAKFVAAWTLHAAA [SEQ ID NO: 6] : 3.4
AAAFFVAAWTLHAAA [SEQ ID NO: 12] : 2.2
AAAFFVAAWTLKADA [SEQ ID NO: 16] : 5.3
AAAFFVAANTLHAAA [SEQ ID NO: 15] : 3.8
AAAWFVAAWTLKAAA [SEQ ID NO: 5] : 3.1
AAAFFVAAFTLKADA [SEQ ID NO: 18] : 4.5
AAAFFVAAWTLKAAA [SEQ ID NO: 11] : 2.4
AAAFFVAAFTLHAAA [SEQ ID NO: 14] : 2

Incoming: Query: IC50; subject: AAAWFVAAFTLHAAA [SEQ ID NO: 9]
Outgoing: 3.1

Incoming: Now consider AAAYFVAAYTLHAAA [SEQ ID NO: 22] and answer again.
Outgoing: 2.3

Incoming: Also check AAAYFVAAFTLHAAA [SEQ ID NO: 23]
Outgoing: 1

Incoming: Then this sequence: AAAFFVAANTLKADA [SEQ ID NO: 19]
Outgoing: 4

Incoming: Same question for AAAYFVAANTLHAAA [SEQ ID NO: 24] please.
Outgoing: 3.3

====

- TARGET DESC: HLA DRB1 *0405 (Homo sapiens, UniProt P01903+P01911, A100R/A169T/D86S/F76Y/I96L/K127E/L162R/M171V/N62H/P40V/Q125Y/R42H/S133A/S149N/S66Y/V115G/V209L/W38E)
- ASSAY INFO: IC50nM to purified HLA | DRB1 *0405
Where no end group is shown, it is not given here.
REPORTED METRIC: pIC50
Scale explanation: pIC50 corresponds to minus log10 of a concentration expressed in moles per litre.

AAAEFVAANTLHAAA [SEQ ID NO: 49] : 7.36
AAAHFVAAFTLKAEA [SEQ ID NO: 38] : 8.09

Incoming: What value of pIC50 has been reported for the following sequence? AAANFVAAWTLKAAA [SEQ ID NO: 50]
Outgoing: 7.74

Incoming: Follow-up item: AAANFVAAWTLHAAA [SEQ ID NO: 51]
Outgoing: 8.12
